# measurement_description: Pharmacokinetic parameters in plasma after intra-articular administration to rats
# Format: in vivo, Sprague Dawley rats
# assay_setup: Sprague Dawley; plasma, male rat, 0.1 mg/knee intra-articular; range printed in row below
# Protocol: Male rats were administered one of the following Test Articles via intra-articular administration to the left knee joint and thereafter pharmacokinetic properties were monitored: crystalline 3-(3-methoxy-4-((4-methoxybenzyl)oxy)benzyl)-6-(1-methyl-1H-pyrazol-4-yl)-3H-imidazo[4,5-b]pyridin-2-amine monohydrate Form 3 (“Form 3 Compound”) or crystalline 3-(3-methoxy-4-((4-methoxybenzyl)oxy)benzyl)-6-(1-methyl-1H-pyrazol-4-yl)-3H-imidazo[4,5-b]pyridin-2-amine monohydrate Form 1 (“Form 1 Compound”). […]
assay_readout: Tmax

Ask | Hello, please tell me recorded Tmax for this one: COc1ccc(COc2ccc(Cn3c(N)nc4cc(-c5cnn(C)c5)cnc43)cc2OC)cc1 [Form 1 Compound, monohydrate, reference compound]
Reply | 4 h

###

# measurement_description: Pharmacokinetic parameters in plasma after intra-articular administration to rats
# Format: in vivo, Sprague Dawley rats
# assay_setup: male, Sprague Dawley, rat, plasma, 1 mg, plasma, male rat, 1 mg/knee intra-articular, mean; read-out: Cmax
# Protocol: Male rats were administered one of the following Test Articles via intra-articular administration to the left knee joint and thereafter pharmacokinetic properties were monitored: crystalline 3-(3-methoxy-4-((4-methoxybenzyl)oxy)benzyl)-6-(1-methyl-1H-pyrazol-4-yl)-3H-imidazo[4,5-b]pyridin-2-amine monohydrate Form 3 (“Form 3 Compound”) or crystalline 3-(3-methoxy-4-((4-methoxybenzyl)oxy)benzyl)-6-(1-methyl-1H-pyrazol-4-yl)-3H-imidazo[4,5-b]pyridin-2-amine monohydrate Form 1 (“Form 1 Compound”). […]
assay_readout: Cmax (ng/mL)
Provide only the numeric value, understood in ng/mL.

Ask | Supply Cmax value. Item: COc1ccc(COc2ccc(Cn3c(N)nc4cc(-c5cnn(C)c5)cnc43)cc2OC)cc1 [Form 3 Compound, monohydrate]
Reply | 52.1

###

# measurement_description: Knee joint concentration and knee/plasma ratio after intra-articular administration to rats
# Assay type: in vivo, Sprague Dawley rats
# assay_setup: male, Sprague Dawley, rat, knee joint, other: intra-articular injection to the left knee joint, 0.1 mg/knee, 1344 hr; read-out: Mean Knee Concentration of Compound
assay_readout: concentration at 1344 hr

Ask | Read the entry COc1ccc(COc2ccc(Cn3c(N)nc4cc(-c5cnn(C)c5)cnc43)cc2OC)cc1 [Form 3 Compound, monohydrate] and write its reported concentration at 1344 hr.
Reply | 383 ng/g

These entries and their values trace back to patent US12291528B2.
